# key: entry, value: IC50
system: MV-4-11 (carrying MLL-AF4); experiment: Inhibition of proliferation of human tumor cells (Alamar Blue, 7 days), MV-4-11; assay type: cell-based; conditions: Homo sapiens, MV4-11, 168 h, MV-4-11 cells (carrying MLL-AF4), method calls the value GI50
Write it as a number; the unit nM goes unstated.

Determine its reported IC50: CCS(=O)(=O)N[C@H]1CC[C@H](CN2CC(c3cc(-c4ccc(F)cc4C(=O)N4[C@H](C)COC[C@H]4C)c4c(F)nc(C)n4c3)C2)CC1 [Example 197] 4

Determine its reported IC50: CCS(=O)(=O)N[C@H]1CC[C@H](CN2CC(c3cc(-c4ccc(F)cc4C(=O)N4CCOC[C@H]4C)c4c(F)nc(C)n4c3)C2)CC1 [Example 145] 13

Determine its reported IC50: CCS(=O)(=O)N[C@H]1CC[C@H](CN2CC[C@@H](c3cc(-c4ccc(F)cc4C(=O)N(CC(F)F)C(C)C)c4cnc(C)n4c3)C2)CC1 [Example 164] 2.2

Determine its reported IC50: Cc1nc(F)c2c(-c3ccc(F)cc3C(=O)N3CCOC[C@H]3C)cc(C3CN([C@H](CCCN4CCN(C)CC4)C(C)C)C3)cn12 [Example 275] 2.6

Determine its reported IC50: CCCC(=O)N1CCC([C@H](C)N2CC(c3cc(-c4ccc(F)cc4C(=O)N4CCOC[C@H]4C)c4c(F)nc(C)n4c3)C2)CC1 [Example 294] 4.9

Determine its reported IC50: CCN(C(=O)c1cc(F)ccc1-c1cc(C2CN(C(C)C3CCN(C(C)=O)CC3)C2)cn2c(C)nc(F)c12)C(C)C (stereo not drawn) [Example 288] 15
